# Tested on: BaF3
# PROCEDURE_SUMMARY: Growth inhibition of mouse BaF3 cells harboring RET V804M mutant incubated for 3 days by MTT assay
# Type: functional
# ASSAY_CONDITIONS: BaF3, 72 h, time 3 day
Exercise: for every item that follows, state its recorded GI50.

response.value for COc1cc2nccc(Oc3ccc(NC(=O)C4(C(=O)Nc5ccc(F)cc5)CC4)cc3)c2cc1OC [CABOZANTINIB] (field: GI50) = 2.8 µM

response.value for CC(C)(C)c1cc(NC(=O)Nc2ccc(Nc3ncnc4c3OCCN4)nc2)no1 (field: GI50) = > 10 µM

response.value for CN1CCCOc2c(Nc3ccc(NC(=O)Nc4cc(C(C)(C)C)on4)cc3)ncnc21 (field: GI50) = > 10 µM

response.value for O=C(Nc1ccc(Nc2ncnc3c2OCCN3)cc1)Nc1cccc2ccccc12 (field: GI50) = > 10 µM

response.value for O=C(Nc1ccc(Nc2ncnc3c2OCCN3)cc1)Nc1cccc(-c2ccccc2)c1 (field: GI50) = > 10 µM

response.value for O=C(Nc1ccc(Nc2ncnc3c2OCCN3)cc1)Nc1ccc(Cl)c(C(F)(F)F)c1 (field: GI50) = > 10 µM

response.value for O=C(Nc1ccc(Nc2ncnc3c2OCCN3)cc1)Nc1cc(Cl)cc(Cl)c1 (field: GI50) = > 10 µM

response.value for Cc1cc(NC(=O)Nc2cc(C(C)(C)C)on2)ccc1Nc1ncnc2c1OCCN2 (field: GI50) = 2.03 µM

response.value for CC(C)(C)c1cc(NC(=O)Nc2ccc(Nc3ncnc4c3OCCN4)c(F)c2)no1 (field: GI50) = 1.53 µM

response.value for COc1cccc(NC(=O)Nc2ccc(Nc3ncnc4c3OCCN4)cc2)c1 (field: GI50) = > 10 µM

====

# MEASUREMENT_TARGET: NT-3 growth factor receptor (Homo sapiens)
# Sequence (Q16288 whole entry): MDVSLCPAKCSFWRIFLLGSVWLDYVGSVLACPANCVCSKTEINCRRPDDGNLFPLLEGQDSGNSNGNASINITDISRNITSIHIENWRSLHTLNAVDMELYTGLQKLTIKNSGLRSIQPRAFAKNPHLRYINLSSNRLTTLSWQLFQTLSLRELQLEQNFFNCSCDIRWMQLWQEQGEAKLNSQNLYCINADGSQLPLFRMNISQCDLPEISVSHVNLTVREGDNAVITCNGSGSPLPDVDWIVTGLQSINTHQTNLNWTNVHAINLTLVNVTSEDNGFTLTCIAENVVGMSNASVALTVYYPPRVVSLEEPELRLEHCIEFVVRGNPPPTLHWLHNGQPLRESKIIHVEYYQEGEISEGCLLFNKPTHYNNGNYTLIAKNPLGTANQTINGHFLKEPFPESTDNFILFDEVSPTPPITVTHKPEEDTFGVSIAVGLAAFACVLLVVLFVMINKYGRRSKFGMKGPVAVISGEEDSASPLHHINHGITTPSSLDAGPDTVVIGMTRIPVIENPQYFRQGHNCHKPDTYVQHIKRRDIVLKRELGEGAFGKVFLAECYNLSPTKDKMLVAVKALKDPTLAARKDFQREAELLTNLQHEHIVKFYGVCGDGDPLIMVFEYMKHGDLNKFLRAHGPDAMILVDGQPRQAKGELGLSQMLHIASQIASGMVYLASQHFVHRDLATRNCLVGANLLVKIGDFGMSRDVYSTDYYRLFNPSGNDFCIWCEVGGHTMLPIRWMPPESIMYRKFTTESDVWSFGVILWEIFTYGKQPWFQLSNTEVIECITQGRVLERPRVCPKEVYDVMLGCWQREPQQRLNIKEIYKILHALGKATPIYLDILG
# PROCEDURE_SUMMARY: Inhibition of recombinant human TRKC (510 to end residues) using GEEPLYWSFPAKKK as substrate incubated for 40 mins in presence of [gamma33P]ATP by scintillation counting based radiometry assay
ASSAY_ENDPOINT: pIC50
Remember, pIC50 is on a log scale: it is -log10 of the molar concentration.

response.value for CC(C)(C)c1cc(NC(=O)Nc2ccc(Nc3ncnc4c3OCCCN4)cc2)no1 (field: pIC50) = 7.70

====

# MEASUREMENT_TARGET: Mast/stem cell growth factor receptor Kit (Homo sapiens, UniProt P10721)
# Sequence (P10721 whole entry): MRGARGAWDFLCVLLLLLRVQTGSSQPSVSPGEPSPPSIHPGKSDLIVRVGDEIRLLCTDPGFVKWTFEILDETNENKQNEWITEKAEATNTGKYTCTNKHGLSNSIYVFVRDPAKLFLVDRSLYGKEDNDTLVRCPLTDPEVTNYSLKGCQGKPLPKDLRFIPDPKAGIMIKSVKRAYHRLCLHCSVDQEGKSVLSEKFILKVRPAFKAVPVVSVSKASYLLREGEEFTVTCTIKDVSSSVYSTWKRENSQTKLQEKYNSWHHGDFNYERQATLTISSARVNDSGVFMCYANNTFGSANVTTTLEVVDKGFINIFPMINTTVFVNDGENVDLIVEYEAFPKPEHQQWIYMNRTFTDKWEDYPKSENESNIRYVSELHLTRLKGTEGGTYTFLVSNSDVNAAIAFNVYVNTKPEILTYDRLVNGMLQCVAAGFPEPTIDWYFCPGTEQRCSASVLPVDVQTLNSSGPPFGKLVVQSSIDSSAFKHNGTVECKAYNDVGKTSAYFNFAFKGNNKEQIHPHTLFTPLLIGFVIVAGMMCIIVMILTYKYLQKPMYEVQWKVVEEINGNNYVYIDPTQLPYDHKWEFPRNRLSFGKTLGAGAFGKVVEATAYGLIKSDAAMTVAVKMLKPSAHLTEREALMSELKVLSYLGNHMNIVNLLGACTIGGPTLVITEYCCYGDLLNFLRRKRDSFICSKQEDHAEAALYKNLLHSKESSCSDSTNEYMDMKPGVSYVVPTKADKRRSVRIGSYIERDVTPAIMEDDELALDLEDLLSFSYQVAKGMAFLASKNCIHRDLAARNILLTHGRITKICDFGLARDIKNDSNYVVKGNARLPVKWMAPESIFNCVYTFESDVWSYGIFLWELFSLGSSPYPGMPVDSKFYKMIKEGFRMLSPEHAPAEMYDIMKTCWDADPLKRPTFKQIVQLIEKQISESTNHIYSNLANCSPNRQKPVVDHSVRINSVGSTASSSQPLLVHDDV
# PROCEDURE_SUMMARY: Inhibition of recombinant human C-Kit using poly(Glu, Tyr) 4:1 as substrate incubated for 40 mins in presence of [gamma-33ATP] by scintillation counting based radiometry assay
ASSAY_ENDPOINT: pIC50
Remember, pIC50 is on a log scale: it is -log10 of the molar concentration.

response.value for CC(C)(C)c1cc(NC(=O)Nc2ccc(Nc3ncnc4c3OCCCN4)cc2)no1 (field: pIC50) = 6.66

====

# MEASUREMENT_TARGET: CDK4/Cyclin D3 (Homo sapiens, UniProt P11802)
# Sequence (P11802 whole entry, the tested form may be a part): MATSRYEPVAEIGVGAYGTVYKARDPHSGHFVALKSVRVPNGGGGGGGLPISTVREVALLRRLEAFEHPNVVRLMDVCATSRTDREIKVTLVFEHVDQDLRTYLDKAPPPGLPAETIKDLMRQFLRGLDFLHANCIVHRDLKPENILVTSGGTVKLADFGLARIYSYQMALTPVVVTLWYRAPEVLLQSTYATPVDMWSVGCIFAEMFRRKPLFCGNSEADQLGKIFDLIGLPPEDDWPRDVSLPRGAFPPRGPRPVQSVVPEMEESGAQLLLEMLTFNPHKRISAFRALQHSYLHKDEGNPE
# Sequence (P30281 whole entry, further chain, the tested form may be a part): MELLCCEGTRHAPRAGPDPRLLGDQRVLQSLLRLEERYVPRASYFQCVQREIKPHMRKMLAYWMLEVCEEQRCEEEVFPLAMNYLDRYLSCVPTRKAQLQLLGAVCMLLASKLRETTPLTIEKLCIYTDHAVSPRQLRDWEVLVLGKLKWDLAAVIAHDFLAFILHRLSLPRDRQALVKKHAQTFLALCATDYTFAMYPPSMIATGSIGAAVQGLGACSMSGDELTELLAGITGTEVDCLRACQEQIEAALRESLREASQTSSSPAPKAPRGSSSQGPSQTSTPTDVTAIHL
# PROCEDURE_SUMMARY: Inhibition of recombinant full length human CDK4/CyclinD3 using Rb fragment as substrate incubated for 40 mins in presence of [gamma-33ATP] by scintillation counting based radiometry assay
ASSAY_ENDPOINT: IC50

response.value for CC(C)(C)c1cc(NC(=O)Nc2ccc(Nc3ncnc4c3OCCCN4)cc2)no1 (field: IC50) = 1110 nM

Data origin: ChEMBL document CHEMBL4765237
